# Tested on: MDR1-MDCK cell monolayers
# Condition set: dog, MDCK-MDR1, 120 min, 5 μM, pH 7.4
Experimental readout: MDCK-MDR1: % Recov A-B (%)

C[C@]12CC[C@](C)(N1)[C@H](F)[C@H](Oc1cnc(-c3ccc(-c4cn[nH]c4)cc3O)cn1)C2 [Compound 2E2]
71
COc1cc(-c2ccc(-c3cnc(N(C)[C@@H]4CC5CC[C@H](N5)[C@@H]4F)cn3)c(O)c2)cc(F)n1 (single isomer, unassigned) [Compound 44E1]
14
COc1cc(-c2cc(O)c(-c3cnc(N(C4CC4)[C@H]4C[C@@H]5CCC(N5)[C@H]4F)cn3)cc2F)ccn1 (single isomer, unassigned) [Compound 36E2]
10
CN(c1cnc(-c2cc(F)c(-c3cn[nH]c3)cc2O)cn1)[C@@H]1C[C@@]2(C)CC[C@](C)(N2)[C@@H]1F [Compound 57E1]
37
CN(c1cnc(-c2ccc(-c3cnn(C)c3)cc2O)cn1)[C@@H]1[C@H](F)[C@H]2CCC(N2)[C@@H]1F (single isomer, unassigned) [Compound 4E2]
44
Cn1cnc(-c2ccc(-c3cnc(N(C4CC4)[C@@H]4CC5CC[C@H](N5)[C@@H]4F)cn3)c(O)c2)cc1=O (single isomer, unassigned) [Compound 55E1]
81

###

# Lookup of reported MDCK-MDR1: % Recov A-B (%) keyed by entry
# Test system: MDR1-MDCK cell monolayers
# Condition set: dog, MDCK-MDR1, 120 min, 5 μM, pH 7.4
Experimental readout: MDCK-MDR1: % Recov A-B (%)

COc1cc(-c2ccc(-c3cnc(N(C)[C@H]4C[C@@H]5COCC(N5)[C@H]4F)cn3)c(O)c2)ccn1 (single isomer, unassigned) [Compound 81E2]
42%
COc1cc(-c2cc(O)c(-c3cnc(N(C)[C@H]4C[C@@H]5CCC(N5)[C@H]4F)cn3)cc2F)ncn1 (single isomer, unassigned) [Compound 34E2]
21%
CN(c1cnc(-c2ccc(-c3ccn(C)c(=O)c3)cc2O)cn1)[C@H]1C[C@@H]2CCC(N2)[C@H]1F (single isomer, unassigned) [Compound 45E2]
87%

###

Entries annotated with measured MDCK-MDR1: % Recov A-B (%)
# System: MDR1-MDCK cell monolayers
# Condition set: dog, MDCK-MDR1, 120 min, 5 μM, pH 7.4
Experimental readout: MDCK-MDR1: % Recov A-B (%)

CN(c1cnc(-c2ccc(-c3ccn(C)c(=O)c3)cc2O)cn1)[C@H]1C[C@@H]2CCCC(N2)[C@H]1F (single isomer, unassigned)
106
CN(c1cnc(-c2ccc(-c3cc[nH]c(=O)c3)cc2O)cn1)[C@H]1C[C@@H]2CC[C@@H](N2)[C@H]1F
93
CN(c1cnc(-c2cc(F)c(-c3ccn(C)c(=O)c3)cc2O)cn1)[C@H]1C[C@@H]2CCCC(N2)[C@H]1F (single isomer, unassigned)
72
CN(c1cnc(-c2ccc(-c3cn[nH]c3)cc2O)cn1)[C@@H]1C[C@@]2(C)CCC[C@](C)(N2)[C@@H]1F
56
CN(c1cnc(-c2ccc(-c3cn[nH]c3)cc2O)cn1)[C@H]1C[C@@H]2COCC(N2)[C@H]1F (single isomer, unassigned)
96
CN(c1cnc(-c2ccc(-c3cn[nH]c3)cc2O)cn1)[C@@H]1CC2CC[C@H](N2)[C@H]1F (single isomer, unassigned)
77

###

# System: MDR1-MDCK cell monolayers
# Condition set: dog, MDCK-MDR1, 120 min, 5 μM, pH 7.4
MDCK-MDR1: % Recov B-A (%) overview
Experimental readout: MDCK-MDR1: % Recov B-A (%)

CN(c1cnc(-c2cc(F)c(-c3ccn(CF)c(=O)c3)cc2O)cn1)[C@H]1C[C@@H]2CCC(N2)[C@H]1F (single isomer, unassigned) [Compound 32E2]
88%
Cn1cc(-c2ccc(-c3cnc(N(C4CC4)[C@@H]4C[C@@]5(C)CC[C@](C)(N5)[C@@H]4F)cn3)c(O)c2)cn1 [Compound 75E1]
70%
COc1cc(-c2ccc(-c3cnc(N(C)[C@H]4C[C@@H]5CCC(N5)[C@H]4F)cn3)c(O)c2)cc(F)n1 (single isomer, unassigned) [Compound 44E2]
52%

###

# Test system: MDR1 (P-gp)
# Protocol summary: MDCK-MDR1 permeability assay, blood-brain-barrier penetration potential
# Condition set: dog, MDCK-MDR1, pH 7.4, MDCK-MDR1 Efflux Ratio
Decision: efflux ratio at 120 min, 5 μM compared against 7; not below it gives 1, below it gives -1.

Cn1cnc(-c2ccc(-c3cnc(N(C4CC4)[C@H]4C[C@@H]5CCC(N5)[C@H]4F)cn3)c(O)c2)cc1=O (single isomer, unassigned) [Compound 55E2]
1
CNC(=O)c1cc(O)c(-c2cnc(N(C)[C@H]3C[C@@H]4CCC(N4)[C@H]3F)cn2)cc1F (single isomer, unassigned) [Compound 15E2]
1
COc1cc(-c2ccc(-c3cnc(N(C4CC4)[C@@H]4CC5CC[C@H](N5)[C@@H]4F)cn3)c(O)c2)ncn1 (single isomer, unassigned) [Compound 56E1]
-1
O=c1cc(-c2cc(O)c(-c3cnc(N(C4CC4)[C@@H]4CC5CC[C@H](N5)[C@@H]4F)cn3)cc2F)ccn1CF (single isomer, unassigned) [Compound 39E1]
1

###

# Test system: MDR1-MDCK cell monolayers
# Condition set: dog, MDCK-MDR1, 120 min, 5 μM, pH 7.4
Entries and their MDCK-MDR1: % Recov B-A (%)
Experimental readout: MDCK-MDR1: % Recov B-A (%)

CN(c1cnc(-c2ccc(-c3cnn(C)c3)cc2O)cn1)[C@@H]1C[C@H]2CCC(N2)[C@@H]1F (single isomer, unassigned)
66
CN(c1cnc(-c2ccc(C3=CC(=O)NC3)cc2O)cn1)[C@H]1C[C@@H]2CCC(N2)[C@H]1F (single isomer, unassigned)
82
Cn1ccc(-c2cc(O)c(-c3cnc(N(C4CC4)[C@H]4C[C@@H]5CCC(N5)[C@H]4F)cn3)cc2F)cc1=O (single isomer, unassigned)
82

###

Listed compounds paired with reported MDCK-MDR1: % Recov B-A (%)
# Tested on: MDR1-MDCK cell monolayers
# Condition set: dog, MDCK-MDR1, 120 min, 5 μM, pH 7.4
Experimental readout: MDCK-MDR1: % Recov B-A (%)

CN(c1cnc(-c2ccc(-c3ccn(C)c(=O)c3)cc2O)cn1)[C@@H]1C[C@H]2CCC[C@H](N2)[C@@H]1F
90%
COc1cc(-c2ccc(-c3cnc(N(C)[C@@H]4CC5CC(F)(F)[C@@H](C4)N5)cn3)c(O)c2)cnn1 (single isomer, unassigned)
89%
CN(c1cnc(-c2cc(F)c(-c3cc(=O)n(C)cn3)cc2O)cn1)[C@H]1C[C@@H]2CCC(N2)[C@H]1F (single isomer, unassigned)
99%
COc1cc(-c2ccc(-c3cnc(N(C)[C@@H]4CC5COC[C@H](N5)[C@@H]4F)cn3)c(O)c2)ccn1 (single isomer, unassigned)
47%
CN(c1cnc(-c2ccc(-c3cc[nH]c(=O)c3)cc2O)cn1)[C@@H]1CC2CC[C@H](N2)[C@@H]1F (single isomer, unassigned)
75%
Cc1nc(-c2ccc(-c3cnc(N(C)[C@@H]4CC5CC[C@H](N5)[C@@H]4F)cn3)c(O)c2)no1 (single isomer, unassigned)
61%

###

# Tested on: MDR1
# Protocol summary: in vitro
# Condition set: dog, MDCK-MDR1, pH 7.4, MDCK-MDR1: Papp B-A (10^−6, cm/s)
Overview of reported Papp B→A at 120 min, 5 μM across a group of compounds:
Experimental readout: Papp B→A at 120 min, 5 μM

CN(c1cnc(-c2cc3ncn(CC(F)(F)F)c(=O)c3cc2O)cn1)[C@@H]1CC2CCC[C@H](N2)[C@@H]1F (single isomer, unassigned) [Compound 18E1]
65.1 ×10⁻⁶ cm/s
O=c1cc(-c2cc(O)c(-c3cnc(N(C4CC4)[C@@H]4CC5CC[C@H](N5)[C@@H]4F)cn3)cc2F)ccn1CF (single isomer, unassigned) [Compound 39E1]
64.2 ×10⁻⁶ cm/s
Cn1cc(-c2ccc(-c3cnc(N(C4CC4)[C@@H]4CC5CC[C@H](N5)[C@@H]4F)cn3)c(O)c2)cn1 (single isomer, unassigned) [Compound 49E1]
26.5 ×10⁻⁶ cm/s
CN(c1cnc(-c2ccc(-c3cn[nH]c3)cc2O)cn1)[C@@H]1C[C@@]2(C)CC[C@H](N2)[C@@H]1F [Compound 28E4]
48.4 ×10⁻⁶ cm/s
CN(c1cnc(-c2ccc(-c3cnn(C)c3)cc2O)cn1)[C@H]1CC2CC[C@@H](N2)[C@H]1F (single isomer, unassigned) [Compound 3E2]
27.1 ×10⁻⁶ cm/s
COc1cc(-c2ccc(-c3cnc(N(C)[C@@H]4C[C@@]5(C)CCC[C@](C)(N5)[C@@H]4F)cn3)c(O)c2)cnn1 [Compound 24E1]
5.01 ×10⁻⁶ cm/s
COc1cc(-c2cc(O)c(-c3cnc(N(C4CC4)[C@@H]4CC5CC[C@H](N5)[C@@H]4F)cn3)cc2F)cc(F)n1 (single isomer, unassigned) [Compound 37E1]
2.73 ×10⁻⁶ cm/s
CN(c1cnc(-c2cc(F)c(-c3ccn(C)c(=O)c3)cc2O)cn1)[C@H]1C[C@@H]2CCC(N2)[C@H]1F (single isomer, unassigned) [Compound 13E2]
40.8 ×10⁻⁶ cm/s
CN(c1cnc(-c2cc(F)c(-c3cn[nH]c3)cc2O)cn1)[C@@H]1C[C@@]2(C)CC[C@](C)(N2)[C@@H]1F [Compound 57E1]
18.8 ×10⁻⁶ cm/s
Cc1cc(-c2ccc(-c3cnc(N(C)[C@@H]4CC5CC[C@H](N5)[C@@H]4F)cn3)c(O)c2)cc(=O)[nH]1 (single isomer, unassigned) [Compound 77E1]
21.9 ×10⁻⁶ cm/s
CN(c1cnc(-c2ccc(-c3cn[nH]c3)cc2O)cn1)[C@H]1C[C@]2(C)CCC(N2)[C@H]1F (single isomer, unassigned) [Compound 28E1]
48.1 ×10⁻⁶ cm/s
Cn1cnc(-c2ccc(-c3cnc(N(C4CC4)[C@H]4C[C@@H]5CCC(N5)[C@H]4F)cn3)c(O)c2)cc1=O (single isomer, unassigned) [Compound 55E2]
42.2 ×10⁻⁶ cm/s
CNC(=O)/C=C/c1cc(O)c(-c2cnc(N(C)[C@@H]3C[C@@]4(C)CC[C@](C)(N4)[C@@H]3F)cn2)cc1F [Compound 61E1]
57.4 ×10⁻⁶ cm/s
CN(c1cnc(-c2cc(F)c(-c3ccn(C)c(=O)c3)cc2O)cn1)[C@@H]1C[C@@]2(C)CC[C@](C)(N2)[C@@H]1F [Compound 62E1]
30.7 ×10⁻⁶ cm/s
CN(c1cnc(-c2ccc(-c3cn[nH]c3)cc2O)cn1)[C@@H]1CC2COC[C@H](N2)[C@@H]1F (single isomer, unassigned) [Compound 72E1]
60.9 ×10⁻⁶ cm/s

This collection of values is drawn from patent US11964971B2.
